// values below are reported relative viability
# Tested on: NCI-H3122
# ASSAY OVERVIEW: relative viability (nuclei count vs DMSO), 5 days (fraction); higher = more cells survive
# CONDITION: first compound 0.1 µM
Number only, no unit.

Below are worked cases with known answers.
>>> value_measured("NC(=O)Nc1cc(-c2cccc(F)c2)sc1C(=O)N[C@H]1CCCNC1 [AZD7762] + Nc1ncn([C@H]2C[C@H](O)[C@@H](CO)O2)c(=O)n1 [Decitabine] (partner 2 µM)")
0.442
>>> value_measured("NC(=O)Nc1cc(-c2cccc(F)c2)sc1C(=O)N[C@H]1CCCNC1 [AZD7762] + CC(=O)c1c(C)c2cnc(Nc3ccc(N4CCNCC4)cn3)nc2n(C2CCCC2)c1=O [Palbociclib] (partner 0.5 µM)")
0.191
>>> value_measured("NC(=O)Nc1cc(-c2cccc(F)c2)sc1C(=O)N[C@H]1CCCNC1 [AZD7762] + COc1cc2c(Oc3ccc(NC(=O)C4(C(=O)Nc5ccc(F)cc5)CC4)cc3F)ccnc2cc1OCCCN1CCOCC1 [Foretinib] (partner 0.25 µM)")
0.995

State the recorded relative viability for this entry: NC(=O)Nc1cc(-c2cccc(F)c2)sc1C(=O)N[C@H]1CCCNC1 [AZD7762] + CCNC(=O)c1noc(-c2cc(C(C)C)c(O)cc2O)c1-c1ccc(CN2CCOCC2)cc1 [Luminespib] (partner 0.01 µM)
0.109

====

# System: NCI-H460
# ASSAY OVERVIEW: relative viability (nuclei count vs DMSO), 5 days (fraction); higher = more cells survive
# CONDITION: first compound 0.253 µM
QUANTITY NAME: relative viability

>>> value_measured("Oc1nc(-c2ccc(C(F)(F)F)cc2)nc2c1CSCC2 [XAV939] + C[C@@H](Oc1cc(-c2cnn(C3CCNCC3)c2)cnc1N)c1c(Cl)ccc(F)c1Cl [Crizotinib] (partner 1 µM)")
0.879
>>> value_measured("C=C1C(=O)O[C@@H](CCCCCCCC)[C@@H]1C(=O)O [C-75] + CS(=O)(=O)CCNCc1ccc(-c2ccc3ncnc(Nc4ccc(OCc5cccc(F)c5)c(Cl)c4)c3c2)o1 [Lapatinib] (partner 2 µM)")
1.38
>>> value_measured("Oc1nc(-c2ccc(C(F)(F)F)cc2)nc2c1CSCC2 [XAV939] + CC(C)C[C@H](NC(=O)[C@H](Cc1ccccc1)NC(=O)c1cnccn1)B(O)O [Bortezomib] (partner 0.002 µM)")
1.07

Given the compound C=C1C(=O)O[C@@H](CCCCCCCC)[C@@H]1C(=O)O [C-75] + O=C(c1cc(Cc2n[nH]c(=O)c3ccccc23)ccc1F)N1CCN(C(=O)C2CC2)CC1 [Olaparib] (partner 8 µM) , what is its reported relative viability?
0.503

What measured relative viability goes with Oc1nc(-c2ccc(C(F)(F)F)cc2)nc2c1CSCC2 [XAV939] + O=C(CCCCCCC(=O)Nc1ccccc1)NO [Vorinostat] (partner 1 µM) ?
0.46

Request the reported relative viability associated with Oc1nc(-c2ccc(C(F)(F)F)cc2)nc2c1CSCC2 [XAV939] + Cc1nc(NC(=O)N2CCC[C@H]2C(N)=O)sc1-c1ccnc(C(C)(C)C(F)(F)F)c1 [Alpelisib] (partner 2 µM)
0.36

====

Listed compounds paired with reported relative viability
# Test system: NCI-H2228
# ASSAY OVERVIEW: relative viability (nuclei count vs DMSO), 5 days (fraction); higher = more cells survive
# CONDITION: first compound 0.253 µM
Number, no unit, nothing else.

These solved cases illustrate the format of a correct answer.
>>> value_measured("Oc1nc(-c2ccc(C(F)(F)F)cc2)nc2c1CSCC2 [XAV939] + N=C(N)NC(=N)NCCc1ccccc1 [Phenformin] (partner 250 µM)")
0.328
>>> value_measured("C=C1C(=O)O[C@@H](CCCCCCCC)[C@@H]1C(=O)O [C-75] + Nc1nc2[nH]cc(CCc3ccc(C(=O)N[C@@H](CCC(=O)O)C(=O)O)cc3)c2c(=O)[nH]1 [Pemetrexed] (partner 0.2 µM)")
0.332

# ---- query compound ----
Reported relative viability, compound Oc1nc(-c2ccc(C(F)(F)F)cc2)nc2c1CSCC2 [XAV939] + Cc1cc(Nc2cc(N3CCN(C)CC3)nc(Sc3ccc(NC(=O)C4CC4)cc3)n2)n[nH]1 [Tozasertib] (partner 0.1 µM) : ____
0.23
